System: PCTK1;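 further: KINOMEscan kinase panel screen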
Construct: gene CDK16
Conditions: concentration: 1 μM, replicates: in singlicate; n = 1
Binary call on %Inh with cut-off 3%: strictly below means 1, and equality or higher means -1.

{"compound": "Clc1ccc(-c2nn3ncccc3c2-c2ccnc(Nc3ccc4c(c3)OCCO4)n2)cc1", "assigned.class": 1}
{"compound": "CCS(=O)(=O)c1ccc(OC)c(Nc2nccc(-c3c(-c4cccc(NC(=O)c5c(F)cccc5F)c4)nn4ncccc34)n2)c1", "assigned.class": 1}
{"compound": "CCn1c(-c2nonc2N)nc2c(C#CC(C)(C)O)ncc(OCCCCN)c21.O=C(O)C(F)(F)F.O=C(O)C(F)(F)F", "assigned.class": -1}
{"compound": "COc1cccc(-c2ccc3c(NC(=O)C4CC4)n[nH]c3n2)c1", "assigned.class": -1}
{"compound": "CC(C)(C)c1ccc2nccc(Nc3cccc(O)c3)c2c1", "assigned.class": 1}
{"compound": "COc1cc(Nc2nccc(-c3c(-c4cccc(NC(=O)c5c(F)cccc5F)c4)nn4ncccc34)n2)cc(OC)c1OC", "assigned.class": -1}
{"compound": "COc1cccc(NC(=O)NC2CCN(c3ccnc(Nc4cc(OC)c(OC)c(OC)c4)n3)C2)c1 (centres unmarked)", "assigned.class": -1}
{"compound": "Cl.Cl.NCC(C(=O)Nc1cc(Br)c(-c2ccnc3[nH]ccc23)s1)c1ccccc1 (centres unmarked)", "assigned.class": -1}
{"compound": "FC(F)(F)c1ccc(/C=C/c2cncnc2Nc2ccc3[nH]c(Cc4ccccc4)nc3c2)cc1", "assigned.class": 1}
{"compound": "Cn1cc(-c2ccc3c(c2)CCN3C(=O)Cc2cccc(F)c2)c2c(N)ncnc21", "assigned.class": -1}
{"compound": "COc1cc(Nc2nccc(N3CCC(NC(=O)c4cc5ccccc5s4)C3)n2)cc(OC)c1OC (centres unmarked)", "assigned.class": 1}
{"compound": "O=C(O)C(F)(F)F.O=C(O)C(F)(F)F.O=c1[nH]ccc2nc(N[C@@H]3CCCNC3)nc(Nc3ccc(S(=O)(=O)N4CCOCC4)cc3)c12", "assigned.class": -1}
